All values here come from patent US9682141B2.

Quick record: IC50, PI3K β (Homo sapiens (Human)).

Some solved cases for reference:
Nc1nc2cc(-c3cnc4ccc(N5C6CCC5COC6)nc4c3)ccc2o1 ... > 10 µM
CN1CCN(CCn2cnc3ccc(-c4ccc5oc(N)nc5c4)cc3c2=O)CC1 ... > 10 µM
CN1CCN(C(=O)C2CN(c3cnc4ccc(-c5ccc6oc(N)nc6c5)cc4n3)C2)CC1 [drawing 443] ... < 10 µM
Nc1nc2cc(-c3ccc4ncc(N5CC(C(=O)N6CCOCC6)C5)nc4c3)ccc2o1 [drawing 442] ... < 10 µM
Cc1cc(-c2ccc3ncc(N4CC(N5CCOCC5)C4)nc3c2)cc2nc(N)oc12 ... < 10 µM
CN1CCN(C(=O)c2cnc3ccc(-c4ccc5oc(N)nc5c4)cn23)CC1 [drawing 570] ... < 10 µM

// assay PI3K β (Homo sapiens (Human)), entry Nc1nc2cc(-c3ccc4ncc(C(=O)N5CCC(O)C5)n4c3)ccc2o1 (centres unmarked) , IC50 value = < 10 µM

// assay PI3K β (Homo sapiens (Human)), entry "CS(=O)(=O)N1CCN(C2CCN(c3cnc4ccc(-c5ccc6oc(N)nc6c5)cc4n3)CC2)CC1" , IC50 value = < 10 µM

// assay PI3K β (Homo sapiens (Human)), entry "CS(=O)(=O)N1CCN(Cc2cc3nc(-c4ccc5oc(N)nc5c4)nc(N4CCOCC4)c3s2)CC1" , IC50 value = < 1 µM

// assay PI3K β (Homo sapiens (Human)), entry "CC(C)[C@@H](N)C(=O)N1CCN(c2cnc3ccc(-c4ccc5oc(N)nc5c4)cc3n2)CC1" , IC50 value = < 1 µM

// assay PI3K β (Homo sapiens (Human)), entry "Nc1nc2cc(-c3cc(F)c4ncc(C(=O)N5CCOCC5)n4c3)ccc2o1" , IC50 value = > 10 µM
